System: Haemophilus influenzae
method: In vitro antimicrobial activity against Haemophilus influenzae.
Assay type: functional
endpoint.name: MIC

MIC measured on `CC[C@H]1OC(=O)C[C@@H](O)[C@H](C)[C@@H](O[C@@H]2O[C@H](C)[C@@H](O)[C@H](N(C)C)[C@H]2O)[C@@H](CCOc2ccc([N+](=O)[O-])cc2)C[C@@H](C)C(=O)/C=C/C(C)=C/[C@@H]1CO[C@@H]1O[C@H](C)[C@@H](O)[C@@H](OC)[C@H]1OC` = 16 µg/mL

Note to self: MIC recorded for `CC[C@H]1OC(=O)C[C@@H](O)[C@H](C)[C@@H](O[C@@H]2O[C@H](C)[C@@H](O)[C@H](N(C)C)[C@H]2O)[C@@H](CCNCCc2ccccc2)C[C@@H](C)C(=O)/C=C/C(C)=C/[C@@H]1CO` was 8 µg/mL

Lab book: MIC of `CCOC(=O)NN(CC[C@H]1C[C@@H](C)C(=O)/C=C/C(C)=C/[C@H](CO[C@@H]2O[C@H](C)[C@@H](O)[C@@H](OC)[C@H]2OC)[C@@H](CC)OC(=O)C[C@@H](O)[C@H](C)[C@H]1O[C@@H]1O[C@H](C)[C@@H](O[C@H]2C[C@@](C)(O)[C@@H](O)[C@H](C)O2)[C@H](N(C)C)[C@H]1O)C(=O)OCC` noted as > 128 µg/mL

Further cases:
Recorded result, CC[C@H]1OC(=O)C[C@@H](O)[C@H](C)[C@@H](O[C@@H]2O[C@H](C)[C@@H](O[C@H]3C[C@@](C)(O)[C@@H](O)[C@H](C)O3)[C@H](N(C)C)[C@H]2O)[C@@H](CCO)C[C@@H](C)C(=O)/C=C/C(C)=C/[C@@H]1CO[C@@H]1O[C@H](C)[C@@H](O)[C@@H](OC)[C@H]1OC [RELOMYCIN] , MIC: > 128 µg/mL

get_value(item= `CC[C@H]1OC(=O)C[C@@H](O)[C@H](C)[C@@H](O[C@@H]2O[C@H](C)[C@@H](O[C@H]3C[C@@](C)(O)[C@@H](O)[C@H](C)O3)[C@H](N(C)C)[C@H]2O)[C@@H](C)C[C@@H](C)C(=O)/C=C/C(C)=C/[C@@H]1CO` , readout=MIC) returns > 128 µg/mL

Just so you know, measured MIC for `CC[C@H]1OC(=O)C[C@@H](O)[C@H](C)[C@@H](O[C@@H]2O[C@H](C)[C@@H](O[C@H]3C[C@@](C)(O)[C@@H](O)[C@H](C)O3)[C@H](N(C)C)[C@H]2O)[C@@H](CCNc2ccc(OC(C)=O)cc2)C[C@@H](C)C(=O)/C=C/C(C)=C/[C@@H]1CO[C@@H]1O[C@H](C)[C@@H](O)[C@@H](OC)[C@H]1OC` came out at 128 µg/mL

The compound identified as `CC[C@H]1OC(=O)C[C@@H](O)[C@H](C)[C@@H](O[C@@H]2O[C@H](C)[C@@H](O[C@H]3C[C@@](C)(O)[C@@H](O)[C@H](C)O3)[C@H](N(C)C)[C@H]2O)[C@@H](CCN2CCCCCCC2)C[C@@H](C)C(=O)/C=C/C(C)=C/[C@@H]1CO[C@@H]1O[C@H](C)[C@@H](O)[C@@H](OC)[C@H]1OC` registered its MIC at 128 µg/mL

response.value for `CC[C@H]1OC(=O)C[C@@H](O)[C@H](C)[C@@H](O[C@@H]2O[C@H](C)[C@@H](O)[C@H](N(C)C)[C@H]2O)[C@@H](CCF)C[C@@H](C)C(=O)/C=C/C(C)=C/[C@@H]1CO[C@@H]1O[C@H](C)[C@@H](O)[C@@H](OC)[C@H]1OC` (field: MIC) = 16 µg/mL

====

Measured MIC, listed per entry.
Test system: Streptococcus pyogenes
method: In vitro antimicrobial activity against Streptococcus pyogenes C203
Assay type: functional
Report the figure in µg/mL without appending any unit label.

Here's what some known entries look like.
Lookup result for `CC[C@H]1OC(=O)C[C@@H](O)[C@H](C)[C@@H](O[C@@H]2O[C@H](C)[C@@H](O)[C@H](N(C)C)[C@H]2O)[C@@H](CCOc2ccc(OC(C)=O)cc2)C[C@@H](C)C(=O)/C=C/C(C)=C/[C@@H]1CO` ; measured MIC: 1

Lab note: measured MIC of `CC[C@H]1OC(=O)C[C@@H](O)[C@H](C)[C@@H](O[C@@H]2O[C@H](C)[C@@H](O[C@H]3C[C@@](C)(O)[C@@H](O)[C@H](C)O3)[C@H](N(C)C)[C@H]2O)[C@@H](CCCl)C[C@@H](C)C(=O)/C=C/C(C)=C/[C@@H]1CO[C@@H]1O[C@H](C)[C@@H](O)[C@@H](OC)[C@H]1OC` was 2

Briefly, MIC measured for CC[C@H]1OC(=O)C[C@@H](O)[C@H](C)[C@@H](O[C@@H]2O[C@H](C)[C@@H](O)[C@H](N(C)C)[C@H]2O)[C@@H](CCOS(=O)c2ccccc2)C[C@@H](C)C(=O)/C=C/C(C)=C/[C@@H]1CO[C@@H]1O[C@H](C)[C@@H](O)[C@@H](OC)[C@H]1OC (some centres undefined) : 0.25

// next entry
So for `CC[C@H]1OC(=O)C[C@@H](O)[C@H](C)[C@@H](O[C@@H]2O[C@H](C)[C@@H](O[C@H]3C[C@@](C)(O)[C@@H](O)[C@H](C)O3)[C@H](N(C)C)[C@H]2O)[C@@H](CCSc2ccccc2)C[C@@H](C)C(=O)/C=C/C(C)=C/[C@@H]1CO[C@@H]1O[C@H](C)[C@@H](O)[C@@H](OC)[C@H]1OC` , the logged MIC turned out to be 4

====

Tested on: Streptococcus pyogenes
method: In vitro antimicrobial activity against Streptococcus pyogenes C203
Format: functional
Reported values of MIC for individual entries
// note: answer is a bare numeric in µg/mL

The compound `CC[C@H]1OC(=O)C[C@@H](O)[C@H](C)[C@@H](O[C@@H]2O[C@H](C)[C@@H](O[C@H]3C[C@@](C)(O)[C@@H](O)[C@H](C)O3)[C@H](N(C)C)[C@H]2O)[C@@H](CC=O)C[C@@H](C)C(=O)/C=C/C(C)=C/[C@@H]1CO[C@@H]1O[C@H](C)[C@@H](O)[C@@H](OC)[C@H]1OC` showed MIC equal to 0.25

Now for the compound whose MIC we want.
Query `CC[C@H]1OC(=O)C[C@@H](O)[C@H](C)[C@@H](O[C@@H]2O[C@H](C)[C@@H](O)[C@H](N(C)C)[C@H]2O)[C@@H](CCN=[N+]=[N-])C[C@@H](C)C(=O)/C=C/C(C)=C/[C@@H]1CO[C@@H]1O[C@H](C)[C@@H](O)[C@@H](OC)[C@H]1OC` yields MIC of 0.25

====

Test system: Staphylococcus aureus
method: In vitro antimicrobial activity against Staphylococcus aureus X1
Assay type: functional
endpoint.name: MIC
Just the number plus its unit, please.

Entry `CC[C@H]1OC(=O)C[C@@H](O)[C@H](C)[C@@H](O[C@@H]2O[C@H](C)[C@@H](O[C@H]3C[C@@](C)(O)[C@@H](O)[C@H](C)O3)[C@H](N(C)C)[C@H]2O)[C@@H](CC=O)C[C@@H](C)C(=O)/C=C/C(C)=C/[C@@H]1CO[C@@H]1O[C@H](C)[C@@H](O)[C@@H](OC)[C@H]1OC` ; assay system Staphylococcus aureus; MIC recorded at 0.5 mg/L

Param item: `CC[C@H]1OC(=O)C[C@@H](O)[C@H](C)[C@@H](O[C@@H]2O[C@H](C)[C@@H](O)[C@H](N(C)C)[C@H]2O)[C@@H](CCO[N+](=O)[O-])C[C@@H](C)C(=O)/C=C/C(C)=C/[C@@H]1CO[C@@H]1O[C@H](C)[C@@H](O)[C@@H](OC)[C@H]1OC` ; param system: Staphylococcus aureus; output MIC: 0.25 mg/L

Lab note: compound `CC[C@H]1OC(=O)C[C@@H](O)[C@H](C)[C@@H](O[C@@H]2O[C@H](C)[C@@H](O)[C@H](N(C)C)[C@H]2O)[C@@H](CCOc2cccnc2)C[C@@H](C)C(=O)/C=C/C(C)=C/[C@@H]1CO[C@@H]1O[C@H](C)[C@@H](O)[C@@H](OC)[C@H]1OC` tested on Staphylococcus aureus; recorded MIC was 0.5 mg/L

Staphylococcus aureus assay, compound `CC[C@H]1OC(=O)C[C@@H](O)[C@H](C)[C@@H](O[C@@H]2O[C@H](C)[C@@H](O[C@H]3C[C@@](C)(O)[C@@H](O)[C@H](C)O3)[C@H](N(C)C)[C@H]2O)[C@@H](CCOc2ccc(C=O)cc2)C[C@@H](C)C(=O)/C=C/C(C)=C/[C@@H]1CO[C@@H]1O[C@H](C)[C@@H](O)[C@@H](OC)[C@H]1OC` , recorded MIC = 1 mg/L

The observed MIC for `CC[C@H]1OC(=O)C[C@@H](O)[C@H](C)[C@@H](O[C@@H]2O[C@H](C)[C@@H](O[C@H]3C[C@@](C)(O)[C@@H](O)[C@H](C)O3)[C@H](N(C)C)[C@H]2O)[C@@H](CCNCCc2ccccc2)C[C@@H](C)C(=O)/C=C/C(C)=C/[C@@H]1CO[C@@H]1O[C@H](C)[C@@H](O)[C@@H](OC)[C@H]1OC` when tested with Staphylococcus aureus stands at 1 mg/L

Note to self: MIC of `CC[C@H]1OC(=O)C[C@@H](O)[C@H](C)[C@@H](O[C@@H]2O[C@H](C)[C@@H](O[C@H]3C[C@@](C)(O)[C@@H](O)[C@H](C)O3)[C@H](N(C)C)[C@H]2O)[C@@H](CCOc2ccc(OC)cc2)C[C@@H](C)C(=O)/C=C/C(C)=C/[C@@H]1CO[C@@H]1O[C@H](C)[C@@H](O)[C@@H](OC)[C@H]1OC` with Staphylococcus aureus was 0.5 mg/L

Read the next record carefully.
Log: Staphylococcus aureus, compound `CC[C@H]1OC(=O)C[C@@H](O)[C@H](C)[C@@H](O[C@@H]2O[C@H](C)[C@@H](O)[C@H](N(C)C)[C@H]2O)[C@@H](CCOc2ccc(CN3CCCCCC3)cc2)C[C@@H](C)C(=O)/C=C/C(C)=C/[C@@H]1CO[C@@H]1O[C@H](C)[C@@H](O)[C@@H](OC)[C@H]1OC` , MIC = 0.5 mg/L
